Target: human CA I (Homo sapiens, UniProt P00915)
Sequence (P00915 whole entry): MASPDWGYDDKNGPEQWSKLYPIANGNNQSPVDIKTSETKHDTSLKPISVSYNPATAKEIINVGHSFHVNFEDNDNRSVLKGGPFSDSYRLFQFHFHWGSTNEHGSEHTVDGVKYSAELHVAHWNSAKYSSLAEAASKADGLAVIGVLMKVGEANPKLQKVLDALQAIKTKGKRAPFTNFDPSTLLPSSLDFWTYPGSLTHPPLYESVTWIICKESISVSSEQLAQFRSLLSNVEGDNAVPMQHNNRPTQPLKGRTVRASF
Kindly apply the following: TRUE if Ki is less than 2000 nM, FALSE in every other case.

| Compound | Tested On | Answer Label |
| --- | --- | --- |
| NNC(=S)Nc1cccc(S(N)(=O)=O)c1 [Compound 3b] | human CA I (Homo sapiens, UniProt P00915) | TRUE |
| NS(=O)(=O)c1ccc(CCNC(=S)N/N=C/c2ccccn2)cc1 [Compound 5c] | human CA I (Homo sapiens, UniProt P00915) | TRUE |
| NNC(=S)NCCc1ccc(S(N)(=O)=O)cc1 [Compound 3c] | human CA I (Homo sapiens, UniProt P00915) | TRUE |

query: Would you kindly verify if Ki of NS(=O)(=O)c1cccc(NC(=S)N/N=C/c2ccccn2)c1 [Compound 5b] is strictly less than 2000 nM?
result: TRUE

query: Problem: For the compound NS(=O)(=O)c1ccc(CCNC(=S)N/N=C/c2ccccc2)cc1 [Compound 4l] , is Ki under 2000 nM?
result: TRUE

query: Is Ki strictly under 2000 nM for the entry COc1ccc(/C=N/NC(=S)NCCc2ccc(S(N)(=O)=O)cc2)cc1 [Compound 4m] ?
result: FALSE
